Test system: SF-268 CNS
experiment description: NCI-60 one-dose screen, 48 h (100 = growth as untreated, 0 = no growth, -100 = all killed)
condition: 10 µM unless noted
The panel holds about 83,000 compounds, 20% with a hit somewhere; the sample as a whole holds those more often.
Use 60% as the dividing line for growth, with the line itself on the satisfied side and lower values as not satisfied.

Field: example entries. Status: answers known.
(Q) Could you tell me if the measured growth of CCN1C(=O)N(CC)C2Nn3c(s/c(=C4\C(=O)N(CC(C)C)c5ccccc54)c3=O)=NC21 (stereo not given) reaches 60% or more?
(A) satisfied

(Q) Reported growth at or above 60%? COc1ccc(C2CC(c3ccc(Nc4ccnc5cc(Cl)ccc45)cc3)=NN2C=O)cc1 (stereo not given)
(A) not satisfied

(Q) Reported growth reaches at least 60% for Cn1cc(-c2ccc3cc(-c4ccc(CC(=O)Nc5cc(C(C)(C)C)nn5C)cc4)cnc3c2)cn1 ?
(A) not satisfied

(Q) Is reported growth greater than or equal to 60% here: CCOC(=O)c1cn2ncnc(Oc3ccc(NC(=O)NCCN4CCN(C)CC4)c(Cl)c3)c2c1C
(A) satisfied

(Q) Hi, just wondering whether c1ccc(-c2nc3sc(-c4ccccc4)cn3n2)cc1 shows growth of 60% or higher.
(A) satisfied

More entries:
(Q) Please check the record COc1ccc(C2=Nn3c(nnc3-c3cc(Cl)cc(Cl)c3Cl)SC2)cc1 and state if its growth is at or above 60%.
(A) not satisfied

(Q) # bool: growth of COc1cc(C(=O)c2cc(C)c3[nH]c4ccc(C)cc4c3c2C)cc(OC)c1OC >= 60%
(A) not satisfied

(Q) Can O=C(Nc1nc2ccc(F)cc2s1)c1cccnc1Nc1ccc(Cl)cc1Cl be said to have growth at or above 60%?
(A) not satisfied

(Q) Given CN1CCN(c2ccc(-c3ccc4ncc(C#N)c(Nc5ccc(F)c(Cl)c5)c4c3)cn2)CC1 , state whether its growth is at least 60%.
(A) not satisfied

(Q) Hi, just wondering whether N#C/C(=C\c1cccc2cnccc12)n1nnc2cccc(F)c21 shows growth of 60% or higher.
(A) satisfied

* * *

Test system: UACC-257 melanoma
experiment description: NCI-60 one-dose screen, 48 h
condition: 10 µM unless noted
Compounds without any hit were thinned out: in the full panel of roughly 83,000, 20% have a hit. Calls of active or inactive are those of the source. Rule for the calls: active = growth percent below 10; inactive = the rest.
Give your call using only these classes: active, inactive

(Q) Outcome? Nc1nc(Cl)cc(=O)n1Cc1ccccc1
(A) inactive

(Q) // param item: Cc1cccc(NCc2cn(-c3ccc(C(=O)O)cc3)nc2-c2ccc(C(=O)O)cc2)n1 ; yields the recorded call
(A) inactive

(Q) Which result was noted for this molecule in the test: COc1ccc(OC)c(/C=C2\Oc3cc(OCCN4CCC(Cc5ccccc5)CC4)ccc3C2=O)c1
(A) inactive

(Q) Record request — test call for C=C1C(=O)O[C@H]2[C@H]1CC/C(COC(=O)CSCC(=O)OC/C1=C/CC[C@@]3(C)O[C@H]3[C@H]3OC(=O)C(=C)[C@@H]3CC1)=C\CC[C@@]1(C)O[C@@H]21
(A) active

(Q) Hi, do you know how CCc1cccc2c3c(sc12)C(c1ccc(F)cc1)C(C#N)=C(N)O3 (stereo not given) came out in this test?
(A) inactive

// next entry
(Q) What classification did CC1Cc2ccccc2N1NC(=O)c1ccc(Cl)c(S(N)(=O)=O)c1 (stereo not given) end up with in this test?
(A) inactive

Just for reference, PubChem BioAssay (NCI) is where these values come from.
